experimental-system: Prostaglandin E2 receptor EP2 subtype (Homo sapiens) (UniProt P43116)
Sequence (P43116 whole entry, looked up): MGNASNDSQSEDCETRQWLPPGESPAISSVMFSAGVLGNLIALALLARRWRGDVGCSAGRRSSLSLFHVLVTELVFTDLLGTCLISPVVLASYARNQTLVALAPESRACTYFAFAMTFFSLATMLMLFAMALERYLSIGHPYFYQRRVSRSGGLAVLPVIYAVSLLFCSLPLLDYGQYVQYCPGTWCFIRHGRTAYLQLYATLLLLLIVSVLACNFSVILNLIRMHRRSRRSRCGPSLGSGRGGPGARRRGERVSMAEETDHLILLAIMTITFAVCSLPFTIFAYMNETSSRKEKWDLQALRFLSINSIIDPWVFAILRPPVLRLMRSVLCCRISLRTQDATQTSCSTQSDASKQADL
protocol-text: EP2 receptor modulators, cAMP readout, primary screen, cell-based, HTRF cAMP, PGE2 stimulation (AID 940);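 further: rat C6 glioma line stably carrying human EP2 under a CMV promoter; the protocol text gives 20 µM as final concentration; 100% = response of wells given 1 µM PGE2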
measurement-conditions: EP2-expressing cells, cAMP HTRF FRET, PGE2 co-stimulation; at 25 µM
Among all 260,000 compounds or so, about 2,200 (0.85%) were called active.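 How the source made its calls: active means compounds whose cAMP rise, as percent of the full-agonist control response, exceeds 60; inactive means the rest.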 What follows is part of a selection rich in actives, with near analogues and random picks from the rest.
Possible outcomes: active, inactive

> print(dat)
                                    compound  label.class
 1  O=P(O)(CP(=O)(c1ccccc1)c1ccccc1)c1ccccc1O     inactive
 2      O=c1c2ccccc2c(-c2ccccc2)nn1Cc1ccccc1       active
 3  CC(=O)NCC(O)c1ccc([N+](=O)[O-])cc1 (configuration not stated)     inactive
 4  CC(C)(C)c1cc(P(=O)(c2ccccc2)c2ccccc2)ccc1O       active
 5          NC(=S)N/N=C/c1coc2cc(Cl)ccc2c1=O     inactive
 6              COc1ccc(Cc2n[nH]c(=S)n2C)cc1     inactive
 7  O=c1c2ccccc2c(-c2ccc(F)cc2)nn1-c1ccc(C(F)(F)F)cc1     inactive
 8            C#CCSc1nnc(-c2sc3ccccc3c2Cl)o1     inactive
 9  O=c1c2ccccc2c(-c2ccc(Br)cc2)nn1Cc1ccccc1       active
10       CCSc1nnc(-c2cc3c(s2)-c2ccccc2CC3)o1       active
11  CC1(C)CCCC2(C)C3C1[C@@H](O)C2(C)C[C@H]3O (some centres not stated)     inactive
12  COc1ccc(N=Nc2ccc(O)c(P(=O)(c3ccccc3)c3ccccc3)c2)cc1     inactive

---

experimental-system: Prostaglandin E2 receptor EP2 subtype (Homo sapiens)
protocol-text: EP2 receptor modulators, cAMP readout, primary screen, cell-based, HTRF cAMP, PGE2 stimulation (AID 940)
measurement-conditions: EP2-expressing cells, cAMP HTRF FRET, PGE2 co-stimulation; at 25 µM; hits give high values
The whole screen tested about 260,000 compounds, of which about 2,200 (0.85%) were called active. What follows is part of a selection rich in actives, with near analogues and random picks from the rest.
// no strictly below 10% in induction; yes otherwise

> print(dat)
                                   molecule  label.class
1  COc1ccc(C2CC(c3cccs3)=NN2c2ccc(F)cc2)cc1OC (stereo unspecified)          yes
2     Cc1cc(C)nc(N2CCC(C(=O)NCC(N)=O)CC2)n1           no
3  COc1ccc(C2CC(c3cccs3)=Nc3ccccc3S2)cc1OC (stereo unspecified)          yes
4  CC1(C(=O)N(CC(=O)NCc2ccc(F)cc2)C2CCCC2)CC(=O)N=C2C=CC=CN21 (stereo unspecified)           no
5  CCc1ccc2oc(=O)cc(CN3CCCCC3C)c2c1 (stereo unspecified)          yes
6  CC1CCCCN1CC(=O)NCc1ccc2c(c1)OCO2 (stereo unspecified)           no

---

experimental-system: Prostaglandin E2 receptor EP2 subtype (Homo sapiens) (UniProt P43116)
protocol-text: EP2 receptor modulators, cAMP readout, primary screen, cell-based, HTRF cAMP, PGE2 stimulation (AID 940);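 further: rat C6 glioma line stably carrying human EP2 under a CMV promoter; the protocol text gives 20 µM as final concentration; 100% = response of wells given 1 µM PGE2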
measurement-conditions: EP2-expressing cells, cAMP HTRF FRET, PGE2 co-stimulation; at 25 µM
Hit rate of the full screen: of about 260,000 compounds, about 2,200 (0.85%) were called active.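 How the source made its calls: active means compounds whose cAMP rise, as percent of the full-agonist control response, exceeds 60; inactive means the rest.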 The sample holds actives, similar compounds and a random draw of the others, so the mix is not that of the screen.
Labels: YES (active), NO (inactive)

> print(dat)
                                    molecule  label.class
 1  Cc1cccc(Cn2c(N3CCN(c4ccccc4)CC3)nc3c2c(=O)n(C)c(=O)n3C)c1          YES
 2  Cn1c(=O)c2c(nc(N3CCN(c4ccccc4)CC3)n2CCC#N)n(C)c1=O           NO
 3        O=C(Cc1cccs1)Nc1nnc(-c2ccccc2Cl)s1           NO
 4              Cc1ccccc1CN1CCC(N2CCCCC2)CC1           NO
 5  COc1cc(NC(=O)CSc2ncnc3c2sc2nc4cc(C)ccc4cc23)cc(OC)c1           NO
 6  NC(=O)CNC(=O)C1CCCN(c2ncccn2)C1 (stereo unspecified)           NO
 7  CCOc1ccc(NC(=O)CSc2ncnc3c2sc2ccccc23)cc1          YES
 8       COc1ccc(-c2csc(N3N=C(C)CC3=O)n2)cc1           NO
 9         NC(=O)C1CCN(Cc2nnnn2Cc2ccccc2)CC1           NO
10      CCCn1cnc2sc(C)c(-c3ccc(Cl)cc3)c2c1=O           NO
11  Cc1cccc(Cn2c(SCCO)nc3c2c(=O)n(C)c(=O)n3C)c1           NO

---

experimental-system: Prostaglandin E2 receptor EP2 subtype (Homo sapiens) (UniProt P43116)
protocol-text: EP2 receptor modulators, cAMP readout, primary screen, cell-based, HTRF cAMP, PGE2 stimulation (AID 940);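 further: rat C6 glioma line stably carrying human EP2 under a CMV promoter; the protocol text gives 20 µM as final concentration; 100% = response of wells given 1 µM PGE2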
measurement-conditions: EP2-expressing cells, cAMP HTRF FRET, PGE2 co-stimulation; at 25 µM; hits give high values
Among all 260,000 compounds or so, about 2,200 (0.85%) were called active. The sample holds actives, similar compounds and a random draw of the others, so the mix is not that of the screen.
We'd kindly ask you to apply these induction classes: low (below -30%), mid (-30% to below 20%), high (20% or more)

> print(dat)
                                    molecule  label.class
 1  O=C(CS(=O)(=O)c1cn(Cc2cccc(F)c2)c2ccccc12)N1CCCCC1          mid
 2  CCOC(=O)C1CCN(C(=O)Nc2c[nH]c3ccc(OC)nc3c2=O)CC1          low
 3  CCn1c2cc(C)sc2c2cnn(CC(=O)Nc3ccc(F)cc3)c(=O)c21          low
 4  CCC(=O)OCc1c(C(F)(F)F)nn(C)c1Oc1cccc(C(F)(F)F)c1         high
 5  O=C(N1CCC(n2nnc3ccccc3c2=O)CC1)C1(c2ccccc2)CCCC1          mid
 6  O=c1cc(N2CCCCC2)c(-c2ccccc2)nn1Cc1cccc(F)c1         high
 7       COc1cc(C#N)ccc1OCc1nc(-c2ccccc2)no1          low
 8  CCOC(=O)c1c(CN2CCOCC2)nc2ccc(Cl)cc2c1-c1ccccc1         high
 9  COCCCn1c(SCC(=O)Nc2cc(Cl)ccc2OC)nc2sc3c(c2c1=O)CCC3          mid
10  CCOC(=O)C(C)NC(=O)c1cc2ccc(F)cc2[nH]1 (stereo not drawn)          low
11         O=C(Cn1nc(-c2cccnc2)oc1=O)N1CCCC1          low
12  Cc1ccc(Nc2ccc(C(N)=O)cc2[N+](=O)[O-])cc1          low
13    Cc1nc(N)[nH]c(=O)c1Oc1cccc(C(F)(F)F)c1         high
14          O=Cc1ccc(Oc2cccc(C(F)(F)F)c2)nc1          mid
15  COc1ccc(C(=O)N2CCc3cc(OC)c(OC)cc3C2c2ccccc2)cc1OC (stereo not drawn)         high
16  O=C(c1cc2sccc2n1Cc1ccc(F)cc1)N1CCc2ccccc21         high
17        COC(=O)c1sccc1NC(=O)COc1ccc(Cl)cc1         high
18  CN(C(=O)CSc1nc(C2CC2)nc2ccccc12)c1nc(-c2ccccc2)cs1          mid

---

experimental-system: Prostaglandin E2 receptor EP2 subtype (Homo sapiens) (UniProt P43116)
protocol-text: EP2 receptor modulators, cAMP readout, primary screen, cell-based, HTRF cAMP, PGE2 stimulation (AID 940);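 further: rat C6 glioma line stably carrying human EP2 under a CMV promoter; the protocol text gives 20 µM as final concentration; 100% = response of wells given 1 µM PGE2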
measurement-conditions: EP2-expressing cells, cAMP HTRF FRET, PGE2 co-stimulation; at 25 µM; hits give high values
Out of some 260,000 compounds screened, about 2,200 (0.85%) were called active. For the sample, actives were picked, then their nearest neighbours and some compounds at random.
induction: recorded values
property-measured: induction (%)

> print(dat)
                                    compound  property.measured  uom  observed.value
 1  CC1(C)C2CCC1(C)C(OC(=O)c1ccc(O)cc1)C2 (stereo unspecified)          induction    %            67.5
 2          CSc1nc2ccccc2c(=O)n1Cc1ccc(F)cc1          induction    %            80.8
 3     C=CCn1cnc2sc(C)c(-c3ccc(Cl)cc3)c2c1=O          induction    %            72.1
 4      COC(=O)CSc1nc2ccccc2c(=O)n1Cc1ccccc1          induction    %            47.6
 5  Cc1nn2c(NCc3cccnc3)c3c(nc2c1-c1cccs1)CCC3          induction    %           -40.8
 6      O=C(Cn1nc2c3ccccc3ncn2c1=O)NCc1cccs1          induction    %            4.57
 7  O=C(NCC1CCCO1)C(=O)Nc1cc(Cl)cc(Cl)c1 (stereo unspecified)          induction    %           -89.4
 8  CCCOC(=O)Cn1cnc2sc(C)c(-c3ccc(Cl)cc3)c2c1=O          induction    %            27.2
 9        Cc1cc2nc(C(F)(F)F)cc(-c3cccs3)n2n1          induction    %            19.1
10  Cc1ccc(N(C(=O)Cn2nnc3ccccc32)C(C(=O)NC2CCCC2)c2ccsc2)cc1 (stereo unspecified)          induction    %            20.6
11  O=[N+]([O-])c1ccc(Sc2nc3c(c(C(F)(F)F)n2)CCCC3)nc1          induction    %            34.3
